# System: MCF7
# test method notes: Antiproliferative activity against human MCF7 cells harboring wild type ERalpha assessed as inhibition of cell growth incubated for 6 to 7 days by high content imaging assay
# Type: functional, cell-based
property name: IC50
Respond with the figure and its unit, in that order.

Please supply the value of reported IC50 for the item Oc1ccc2c3c(cnc2c1)-c1ccc(C(F)(F)F)cc1O[C@@H]3c1ccc(OCCN2CC(CF)C2)cc1
3 nM

---

# test method notes: Volume of distribution at steady state in cynomolgus monkey at 5 mg/kg, iv measured upto 24 hrs by LC-MS/MS analysis
# Assay type: ADME, organism-based, Macaca fascicularis
# measurement setup: in vivo, read-out: Vdss
property name: Vd (L/kg)
Value expressed in L/kg; do not type the unit.

Please supply the value of reported Vd for the item CN(C)C(=O)/C=C/CNCCOc1ccc(/C(=C(/CC(F)(F)F)c2ccccc2)c2ccc3[nH]nc(F)c3c2)cn1 [H3B-6545 FREE BASE]
3

---

# test method notes: Cmax in human MCF7 cells xenografted in 17beta-estradiol-treated NOD/SCID mouse model at 30 mg/kg, po and measured after 18 hrs post last dose
# measurement setup: in vivo
property name: Cmax (ng/mL)
Value expressed in ng/mL; do not type the unit.

Please supply the value of reported Cmax for the item O=C1CC[C@H](N2Cc3cc(N4CCN(CC5CCN(c6ccc([C@@H]7c8ccc(O)cc8CC[C@@H]7c7ccccc7)cc6)CC5)CC4)ccc3C2=O)C(=O)N1
962

---

# Tested on: MCF7
# test method notes: Antiproliferative activity against human MCF7 cells harboring ERalpha Y537N mutant assessed as inhibition of cell growth incubated for 6 to 7 days by high content imaging assay
# Type: functional, cell-based
property name: IC50 (nM)
Value expressed in nM; do not type the unit.

Please supply the value of reported IC50 for the item Oc1ccc2c3c(cnc2c1)-c1ccc(C(F)(F)F)cc1O[C@@H]3c1ccc(OCCN2CC(CF)C2)cc1
17

---

# test method notes: Clearance in cynomolgus monkey at 5 mg/kg, iv measured upto 24 hrs by LC-MS/MS analysis
# Assay type: ADME, organism-based, Macaca fascicularis
# measurement setup: in vivo
property name: clearance (mL/min/kg)
Value expressed in mL/min/kg; do not type the unit.

Please supply the value of reported clearance for the item CN(C)C(=O)/C=C/CNCCOc1ccc(/C(=C(/CC(F)(F)F)c2ccccc2)c2ccc3[nH]nc(F)c3c2)cn1 [H3B-6545 FREE BASE]
18.2

---

# target of assay: Estrogen receptor (Homo sapiens, UniProt P03372)
# Sequence (P03372 whole entry): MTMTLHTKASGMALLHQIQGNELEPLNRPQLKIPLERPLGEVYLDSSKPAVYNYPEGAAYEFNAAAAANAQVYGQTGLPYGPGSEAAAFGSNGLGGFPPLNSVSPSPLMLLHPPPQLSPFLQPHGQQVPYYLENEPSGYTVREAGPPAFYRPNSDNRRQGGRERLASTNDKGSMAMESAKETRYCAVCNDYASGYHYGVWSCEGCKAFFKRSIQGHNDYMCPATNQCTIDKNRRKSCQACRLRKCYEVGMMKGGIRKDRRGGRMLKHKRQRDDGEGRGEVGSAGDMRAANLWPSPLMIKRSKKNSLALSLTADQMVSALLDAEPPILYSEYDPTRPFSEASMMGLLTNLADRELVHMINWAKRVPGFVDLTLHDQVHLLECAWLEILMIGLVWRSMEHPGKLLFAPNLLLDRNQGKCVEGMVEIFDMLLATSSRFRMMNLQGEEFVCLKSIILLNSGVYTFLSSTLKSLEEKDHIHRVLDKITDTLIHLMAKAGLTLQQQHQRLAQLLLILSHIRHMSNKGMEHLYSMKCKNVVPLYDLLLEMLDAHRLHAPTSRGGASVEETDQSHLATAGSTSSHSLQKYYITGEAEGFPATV
# test method notes: Induction of ERalpha degradation (unknown origin)
property name: pEC50
# reply with the number alone; pEC50 is -log10 of concentration in mol/L

Please supply the value of reported pEC50 for the item O=C(O)/C=C/c1ccc(Oc2c(-c3ccc(O)cc3)sc3cc(O)ccc23)cc1
7.51

---

# test method notes: Volume of distribution at steady state in Sprague-Dawley rat at 5 mg/kg, iv measured upto 24 hrs by LC-MS/MS analysis
# Format: ADME, organism-based
# measurement setup: in vivo, read-out: Vdss
property name: Vd
Respond with the figure and its unit, in that order.

Please supply the value of reported Vd for the item CN(C)C(=O)/C=C/CNCCOc1ccc(/C(=C(/CC(F)(F)F)c2ccccc2)c2ccc3[nH]nc(F)c3c2)cn1 [H3B-6545 FREE BASE]
1.2 L/kg

---

# test method notes: Half life in cynomolgus monkey at 5 mg/kg, iv measured upto 24 hrs by LC-MS/MS analysis
# Format: ADME, organism-based, Macaca fascicularis
# measurement setup: in vivo
property name: half-life

Please supply the value of reported half-life for the item CN(C)C(=O)/C=C/CNCCOc1ccc(/C(=C(/CC(F)(F)F)c2ccccc2)c2ccc3[nH]nc(F)c3c2)cn1 [H3B-6545 FREE BASE]
4 h

Where do the numbers come from? From ChEMBL document CHEMBL5346947.
